Assay: Pheromone migrated to the stick tips (GC/FID)
Type: physicochemical
Details: on stick tips, despecified pheromone, day 21
endpoint-label: % of the active ingredient in the pheromone (%)
Quick note: give the figure in %, leave out the unit.

>>> result("CCCCCCCCCCCCCC(=O)OC [methyl myristate, methyl tetradecanoate]")
6.4
>>> result("CCCCCCCCCCCCCCCC(=O)OC [methyl palmitate, methyl hexadecanoate]")
32.5
>>> result("CCCCC/C=C\\C/C=C\\CCCCCCCC(=O)OC [methyl linoleate, methyl (9Z,12Z)-octadeca-9,12-dienoate]")
28.6

Proceed to the following item.
Given CCCCCCCC/C=C\CCCCCCCC(=O)OC [methyl oleate, methyl (Z)-octadec-9-enoate] , state its recorded % of the active ingredient in the pheromone.
32.6
